Tested on: SGC-7901
Experiment: Antiproliferative activity against human SGC7901 cells assessed as reduction in cell growth incubated for 72 hrs by MTT assay
Type: functional, cell-based
Details: SGC-7901, 72 h

[
  {
    "Chem smiles": "COc1cc(-c2n[nH]c3ncc(-c4cc(C)ccc4N)cc23)cc(OC)c1OC",
    "Sign qualifier": "=",
    "IC50 [µM]": 0.62
  },
  {
    "Chem smiles": "COc1cc(-c2n[nH]c3ncc(-c4ccc(C)cc4N)cc23)cc(OC)c1OC",
    "Sign qualifier": "=",
    "IC50 [µM]": 0.23
  },
  {
    "Chem smiles": "COc1cc(-c2n[nH]c3ncc(-c4ccc(F)cc4)cc23)cc(OC)c1OC",
    "Sign qualifier": "=",
    "IC50 [µM]": 2.31
  },
  {
    "Chem smiles": "COc1ccc(-c2n[nH]c3ncc(-c4ccc(C)cc4N)cc23)cc1OC",
    "Sign qualifier": ">",
    "IC50 [µM]": 30
  },
  {
    "Chem smiles": "COc1cc(-c2n[nH]c3ncc(-c4ccc(Cl)cc4N)cc23)cc(OC)c1OC",
    "Sign qualifier": "=",
    "IC50 [µM]": 0.58
  },
  {
    "Chem smiles": "COc1cc(C(=O)c2csc(-c3ccccc3)n2)cc(OC)c1OC",
    "Sign qualifier": "=",
    "IC50 [µM]": 0.018
  },
  {
    "Chem smiles": "COc1ccc(-c2n[nH]c3ncc(-c4ccc(C)cc4)cc23)cc1OC",
    "Sign qualifier": ">",
    "IC50 [µM]": 30
  },
  {
    "Chem smiles": "CNc1cc(C)ccc1-c1cnc2[nH]nc(-c3cc(OC)c(OC)c(OC)c3)c2c1",
    "Sign qualifier": "=",
    "IC50 [µM]": 6.31
  },
  {
    "Chem smiles": "COc1cc(-c2n[nH]c3ncc(-c4ccc(Br)cc4)cc23)cc(OC)c1OC",
    "Sign qualifier": "=",
    "IC50 [µM]": 20.2
  },
  {
    "Chem smiles": "COc1cc(-c2n[nH]c3ncc(-c4ccccc4N)cc23)cc(OC)c1OC",
    "Sign qualifier": "=",
    "IC50 [µM]": 4.37
  },
  {
    "Chem smiles": "COc1ccc(-c2cnc3[nH]nc(-c4cc(OC)c(OC)c(OC)c4)c3c2)cc1",
    "Sign qualifier": "=",
    "IC50 [µM]": 0.13
  },
  {
    "Chem smiles": "COc1ccc(-c2cnc3[nH]nc(-c4cc(OC)c(OC)c(OC)c4)c3c2)c(N)c1",
    "Sign qualifier": "=",
    "IC50 [µM]": 3.73
  },
  {
    "Chem smiles": "CNc1cc(Cl)ccc1-c1cnc2[nH]nc(-c3cc(OC)c(OC)c(OC)c3)c2c1",
    "Sign qualifier": "=",
    "IC50 [µM]": 8.48
  },
  {
    "Chem smiles": "COc1ccc(-c2n[nH]c3ncc(-c4ccc(C)cc4N)cc23)cc1",
    "Sign qualifier": ">",
    "IC50 [µM]": 30
  },
  {
    "Chem smiles": "COc1cc(-c2n[nH]c3ncc(-c4ccc(F)cc4N)cc23)cc(OC)c1OC",
    "Sign qualifier": "=",
    "IC50 [µM]": 0.4
  },
  {
    "Chem smiles": "COc1ccc(-c2n[nH]c3ncc(-c4ccc(C)cc4)cc23)cc1",
    "Sign qualifier": ">",
    "IC50 [µM]": 30
  },
  {
    "Chem smiles": "COc1cc(-c2n[nH]c3ncc(-c4ccc(C)cc4)cc23)cc(OC)c1OC",
    "Sign qualifier": "=",
    "IC50 [µM]": 0.013
  },
  {
    "Chem smiles": "COc1cc(-c2n[nH]c3ncc(-c4cccc(C)c4)cc23)cc(OC)c1OC",
    "Sign qualifier": "=",
    "IC50 [µM]": 0.051
  },
  {
    "Chem smiles": "COc1cc(-c2n[nH]c3ncc(-c4ccc(Cl)cc4)cc23)cc(OC)c1OC",
    "Sign qualifier": "=",
    "IC50 [µM]": 4.82
  },
  {
    "Chem smiles": "COc1ccc(N)c(-c2cnc3[nH]nc(-c4cc(OC)c(OC)c(OC)c4)c3c2)c1",
    "Sign qualifier": "=",
    "IC50 [µM]": 9.51
  },
  {
    "Chem smiles": "CNc1cc(F)ccc1-c1cnc2[nH]nc(-c3cc(OC)c(OC)c(OC)c3)c2c1",
    "Sign qualifier": "=",
    "IC50 [µM]": 3.76
  }
]
